- PROTOCOL TEXT: Four-period, two-way crossover open label single-dose food-effect pharmacokinetic study of tradipitant capsules in healthy participants (plasma tradipitant and metabolites M2, M3, M4, M8)
- Assay type: in vivo, human
- EXPERIMENTAL SETUP: human, plasma, po, 170 mg, 170 mg tradipitant oral, fasted; ln-transformed; read-out: AUC(0-t), Least Squares Geometric Mean, Fasted
ASSAY READOUT: AUC(0-t) (ng·h/mL)

> print(dat)
                           structure.string  assay.readout  readout.unit  reported.value
1  O=C(c1ccccc1Cl)c1cccnc1-c1nnn(Cc2cc(C(F)(F)F)cc(C(F)(F)F)c2)c1-c1ccncc1       AUC(0-t)       ng·h/mL            2800

====

- PROTOCOL TEXT: Four-period, two-way crossover open label single-dose food-effect pharmacokinetic study of tradipitant capsules in healthy participants (plasma tradipitant and metabolites M2, M3, M4, M8)
- Type: in vivo, human
- EXPERIMENTAL SETUP: human, plasma, po, 170 mg, 170 mg tradipitant oral, fasted; plasma; geometric mean [geometric % CV]; read-out: AUC(inf)
ASSAY READOUT: AUC(0-inf) (ng·h/mL)

> print(dat)
                           structure.string  readout.unit  reported.value
1  O=C(c1ccccc1Cl)c1cccnc1-c1nnn(Cc2cc(C(F)(F)F)cc(C(F)(F)F)c2)c1-c1ccncc1       ng·h/mL            3530

====

- PROTOCOL TEXT: Four-period, two-way crossover open label single-dose food-effect pharmacokinetic study of tradipitant capsules in healthy participants (plasma tradipitant and metabolites M2, M3, M4, M8)
- Format: in vivo, human
- EXPERIMENTAL SETUP: human, plasma, po, 170 mg, 170 mg tradipitant oral, fed; ln-transformed; read-out: AUC(0-t), Least Squares Geometric Mean, Fed
ASSAY READOUT: AUC(0-t) (µg·h/mL)

> print(dat)
                           structure.string  assay.readout  reported.value
1  O=C(c1ccccc1Cl)c1cccnc1-c1nnn(Cc2cc(C(F)(F)F)cc(C(F)(F)F)c2)c1-c1ccncc1       AUC(0-t)            9.18
